target_under_test: testosterone 5α-reductase prepared from rat prostates
measurement_description: Testosterone 5α-reductase assay ([1,2,6,7-3H]testosterone as substrate);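 further: conversion of tritiated testosterone to 5α-dihydrotestosterone, separated by TLC and scintillation counted, relative to enzyme control without test sample after subtracting substrate blank without enzyme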
condition_set: read-out: IC50 (testosterone 5α-reductase inhibitory activity); rat ventral prostate enzyme suspension, pH 6.5, 37°C, 1 h; both type 1 and type 2 isozymes
pIC50: −log10 of the molar value.
reported_property: pIC50

Return value of pIC50 for input CC(=NO)[C@H]1CC[C@H]2[C@@H]3CCC4NC(=O)CC[C@]4(C)[C@H]3CC[C@]12C (stereo partly shown) , no commentary.
8.00

Return value of pIC50 for input CC(=NO)[C@H]1CCC2C3CCC(=O)[C@](C)(CCC(=O)O)C3CC[C@@]21C (stereo partly shown) , no commentary.
5.68

Return value of pIC50 for input CC(=O)[C@H]1CC[C@H]2[C@@H]3CCC4NC(=O)CC[C@]4(C)[C@H]3CC[C@]12C (stereo partly shown) , no commentary.
5.21

(I) CC(C)(C)NC(=O)[C@H]1CC[C@H]2[C@@H]3CC[C@H]4NC(=O)C=C[C@]4(C)[C@H]3CC[C@]12C [Finasteride, finasteride, reference compound]
(II) CC(=O)[C@H]1CC[C@H]2[C@@H]3CCC4NC(=O)C=C[C@]4(C)[C@H]3CC[C@]12C (stereo partly shown)
Field: entry with larger pIC50 (options I / II ). Pick one; state its label.
I
(I: 8.92, II: 7.85)

* * *

Property: melting point; scope: individual compounds

# count of solved cases: 6
Return value of melting point for input CC(=NO)[C@H]1CC[C@H]2[C@@H]3CCC4NC(=O)CC[C@]4(C)[C@H]3CC[C@]12C (some centres unmarked) , no commentary.
194 to 196 °C

Return value of melting point for input CC(=NO)[C@H]1CC[C@H]2[C@@H]3CCC4NC(=O)C=C[C@]4(C)[C@H]3CC[C@]12C (some centres unmarked) , no commentary.
235 to 237 °C

Return value of melting point for input CC(=O)[C@H]1CC[C@H]2[C@@H]3CCC4NC(=O)C=C[C@]4(C)[C@H]3CC[C@]12C (some centres unmarked) , no commentary.
174 to 176 °C

Return value of melting point for input "CC(=O)[C@H]1CC[C@H]2[C@@H]3C=CC4=CC(=O)[C@@H]5O[C@@H]5[C@]4(C)[C@H]3CC[C@]12C" , no commentary.
183 to 185 °C

Return value of melting point for input "CC(=O)[C@H]1CC[C@H]2[C@@H]3[C@@H]4O[C@@H]4C4=CC(=O)C=C[C@]4(C)[C@H]3CC[C@]12C" , no commentary.
206 to 208 °C

Return value of melting point for input "CC(=NO)[C@H]1CC[C@H]2[C@@H]3CC=C4NC(=O)CC[C@]4(C)[C@H]3CC[C@]12C" , no commentary.
208 to 210 °C

***
Return value of melting point for input "CC(=NO)[C@H]1CC[C@H]2[C@@H]3[C@@H]4O[C@@H]4C4=CC(=O)C=C[C@]4(C)[C@H]3CC[C@]12C" , no commentary.
245 to 247 °C

Return value of melting point for input "CC(=NO)[C@H]1CC[C@H]2[C@@H]3C=CC4=CC(=O)[C@@H]5O[C@@H]5[C@]4(C)[C@H]3CC[C@]12C" , no commentary.
228 to 230 °C

Return value of melting point for input "CC(=O)[C@H]1CC[C@H]2[C@@H]3CC=C4NC(=O)CC[C@]4(C)[C@H]3CC[C@]12C" , no commentary.
158 to 160 °C

Return value of melting point for input CC(=O)[C@H]1CCC2C3CCC(=O)[C@](C)(CCC(=O)O)C3CC[C@@]21C (some centres unmarked) , no commentary.
176 to 178 °C

Return value of melting point for input "CC(=O)[C@H]1CC[C@H]2[C@@H]3C=CC4=CC(=O)C=C[C@]4(C)[C@H]3CC[C@]12C" , no commentary.
144 to 146 °C
